B1: HEEH_KT_rd6_3632 (parent)
chain: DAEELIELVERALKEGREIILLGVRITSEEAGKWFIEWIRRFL

# Variants of: B1
# assay_name: folding stability dG (cDNA display proteolysis); higher = more stable
# run_parameters: PBS, room temperature
value_type: folding stability dG (kcal/mol)
Output spec: scalar in kcal/mol, unitless text.

Study these solved cases before continuing.
- sequence_chain: "DAEELIELVERALKEGREIILLGVRITSEEAGKWFIERIRRFL"
  unit_text: "kcal/mol"
  folding stability dG: 2.89
- sequence_chain: "DAEELIELVERALKEGREIILLGVRITSEEAGKWFIEWIRRGL"
  unit_text: "kcal/mol"
  folding stability dG: 3.06
- sequence_chain: "DAERLIELVERALKEGREIILLGVRITSEEAGKWFIEWIRRFL"
  unit_text: "kcal/mol"
  folding stability dG: 4.21
- sequence_chain: "DAEELIELVERALKEGREIILLGVRITSEQAGKWFIEWIRRFL"
  unit_text: "kcal/mol"
  folding stability dG: 3.77

Input line: Which folding stability dG value is on record for DAEDLIELVERALKEGREIILLGVRITSEEAGKWFIEWIRRFL ?
Output line: 3.65

Input line: Param item: DAEELIENVERALKEGREIILLGVRITSEEAGKWFIEWIRRFL
Output line: 2.93

Input line: Could you do the same for DAEELIERVERALKEGREIILLGVRITSEEAGKWFIEWIRRFL , please?
Output line: 3.53

Input line: Queued: DAEELIELVERALKEGREIILLGVRITSEEAGKWSIEWIRRFL
Output line: 2.86

Input line: Please give the result for DAEELIEGVERALKEGREIILLGVRITSEEAGKWFIEWIRRFL too.
Output line: 3.03

Input line: // repeat for DAEELIELVERALKEGREIILLGVRITSEEAGKWFIYWIRRFL and report
Output line: 3.92

The reported measurements were obtained from the MegaScale stability set (Tsuboyama et al. 2023).
